B1: CCDC6 (parent)
chain: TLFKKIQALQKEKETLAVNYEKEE

Variants of: B1
Assay: protein stability index of a GFP-peptide fusion (GPS, HEK-293T) (PSI 1-6); higher = more stable;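 note: lentivirally expressed fusions sorted by FACS into six bins by GFP to DsRed ratio, PSI derived from sequencing read proportions per bin multiplied by bin number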
Settings: c terminus: a fixed tail appended
Rule: criterion met for protein stability index not less than 3, criterion not met for anything less.

Answered cases to consult:
MLFKKIQALQKEKETLAVNYEKEE
criterion not met
TLFKKIQALTKEKETLAVNYEKEE
criterion met
TLFKKIQALQKEKFTLAVNYEKEE
criterion not met
TLFKKIQDLQKEKETLAVNYEKEE
criterion met
TLFKKIQALQKEKETLAVPYEKEE
criterion met
TLFKKIQWLQKEKETLAVNYEKEE
criterion not met
TLFKKIQAIQKEKETLAVNYEKEE
criterion met
TAFKKIQALQKEKETLAVNYEKEE
criterion met
TLFKKIQALQKEKETLAVNYEKEN
criterion not met
TLFGKIQALQKEKETLAVNYEKEE
criterion met

Request: Check this variant for protein stability index at or above 3: TLFKKIQALQKAKETLAVNYEKEE
Result: criterion not met

Request: Exam item: decide whether the reported protein stability index for TLFKKIQALQKEKETQAVNYEKEE is at least 3.
Result: criterion met

Request: Is reported protein stability index greater than or equal to 3 here: TLFKGIQALQKEKETLAVNYEKEE
Result: criterion met

Request: Quick check: does TLFKKIQALQKEKETLAVCYEKEE have protein stability index greater than or equal to 3?
Result: criterion met

Request: Determine whether measured protein stability index meets or exceeds 3 for TLFKKCQALQKEKETLAVNYEKEE
Result: criterion met

Request: Check this variant for protein stability index at or above 3: TLMKKIQALQKEKETLAVNYEKEE
Result: criterion met

Request: Form field: protein stability index at least 3? Entry: TLFPKIQALQKEKETLAVNYEKEE
Result: criterion met

Request: Confirm if protein stability index reported for the variant TLFKKIQALQKEKETLAVNYEKCE is 3 or above.
Result: criterion not met

Request: Check this variant for protein stability index at or above 3: VLFKKIQALQKEKETLAVNYEKEE
Result: criterion met

Request: Threshold query (protein stability index >= 3) on TLFKKIQALQKEKDTLAVNYEKEE
Result: criterion met

Request: Does protein stability index meet or surpass 3 for TLFKKIQALQKEKEPLAVNYEKEE ?
Result: criterion met

Request: Threshold query (protein stability index >= 3) on TLFKKIQALQKEKETLAVNCEKEE
Result: criterion met

Request: Does the variant TLFKKTQALQKEKETLAVNYEKEE have recorded protein stability index that is 3 or more?
Result: criterion met
